# TEST_DETAILS: Plasma stability, rabbit plasma
# Format: in vitro ADME
# RUN_PARAMETERS: male, rabbit, K2-EDTA plasma
Ends that are not written are not given here.
READOUT_TYPE: half-life at 1 µM (h)

KEGVLYVGHHTK [AmyP53] = 10

###

# System: plasma proteins
# TEST_DETAILS: Plasma protein binding by rapid equilibration dialysis
# Format: in vitro ADME, dog
# RUN_PARAMETERS: male, dog, K2-EDTA plasma
Ends that are not written are not given here.
READOUT_TYPE: fraction unbound at 2 h, 5 µM

KEGVLYVGHHTK [AmyP53] = 0.154

###

# TEST_DETAILS: Plasma stability, mini-pig plasma
# Type: in vitro ADME
# RUN_PARAMETERS: male, pig, K2-EDTA plasma
Ends that are not written are not given here.
READOUT_TYPE: half-life at 1 µM

KEGVLYVGHHTK [AmyP53] = 6.07 h
